# Subject of test: T1, recombinant extracellular domain of CD47 (UniProt Q08722 19-139, limits assumed)
# T1 construct: extracellular domain; Analyte flowed over the captured antibodies in SPR; also called CD47-ECD
# Method: SPR; antibody captured on anti-human Fc, CD47-ECD flowed 0-100 nM; 1:1 Langmuir
# Experimental: The binding kinetics of anti-CD47 antibodies to the recombinant extracellular domain of CD47 were determined by using surface Plasmon resonance (SPR, MASS-1, Sierra Sensors; T200, Biacore, GE Healthcare Life Sciences). Anti-human Fc (P/N: BR-1008-39 (GE Healthcare Life Sciences)) was immobilized on a High Capacity Amine chip (P/N: SPR-AS-HCA, Sierra sensors) or CM5-S Chip (GE Healthcare Life Sciences). […]
Recorded metric: koff (s⁻¹)
Reply with just the number (in s⁻¹).

For orientation, consider the following solved cases.
[
  {
    "Binder": "Ab356/Ab1122 (antibody, V domains shown, FR and CDR L2 variant; Label printed HC first; r445 used; also called HC Ab356 / LC Ab1122) VH: QMQLVQSGAEVKKPGSSVKVSCKASGFNIKDYYLHWVRQAPGKGLEWMGWIDPDQGDTEYAQKFQGRVTITRDRSTSTAYMELRSLRAEDTAVYYCNAAYGSSSYPMDYWGQGTTVTVSS VL: NIQMTQSPSSLSASVGDRVTITCRASQDIHRYLSWFQQKPGKVPKHLIYRYERFVDGVPSRFSGSGSGTEFTLTISSLQPEDFATYYCLQYDEFPYTFGGGTKVEIK",
    "Readout value": 0.00411
  },
  {
    "Binder": "Ab495/Ab356 (antibody, V domains shown, also called LC Ab495 / HC Ab356) VH: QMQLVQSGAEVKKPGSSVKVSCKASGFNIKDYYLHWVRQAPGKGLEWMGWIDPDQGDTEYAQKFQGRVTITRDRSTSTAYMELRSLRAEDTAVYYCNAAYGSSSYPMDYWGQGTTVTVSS VL: NIQMTQSPSSLSASVGDRVTITCKASQDIHRYLSWYQQKPGKAPKHLIYRANRLVSGVPSRFSGSGSGTEFTLTISSLQPEDFATYYCLQYDEFPYTFGGGTKVEIK",
    "Readout value": 0.00426
  }
]

Now examine the next entry.
Prompt: Given Ab495/Ab480 (antibody, V domains shown, also called LC Ab495 / HC Ab480) VH: QMQLVQSGAEVKKPGSSVKVSCKASGFNIKDYYLHWVRQAPGKGLEWMGWIDPDQGDTEYAQKFQGRVTITRDRSTSTAYMELRSLRAEDTAVYYCNAAYGSSSYPMDYWGQGTLVTVSS VL: NIQMTQSPSSLSASVGDRVTITCKASQDIHRYLSWYQQKPGKAPKHLIYRANRLVSGVPSRFSGSGSGTEFTLTISSLQPEDFATYYCLQYDEFPYTFGGGTKVEIK , state its recorded koff.
Response: 0.00434

Values were extracted from patent US20190241654A1.
